Test: Half life in Sprague-Dawley rat at 1 mg/kg, po administered as single dose by LC-MS/MS analysis
Assay type: ADME, organism-based
Settings: in vivo
readout.label: half-life (h)
Answers are plain numbers, in h.

Look up half-life for this compound: O=C(CC12CCC(C(=O)O)(CC1)C2)N1CCc2c(n(Cc3ccc(F)cc3)c3ncccc23)C1
2.5

* * *

Test: Volume of distribution at steady state in Sprague-Dawley rat at 0.3 mg/kg, iv administered as single dose by LC-MS/MS analysis
Assay type: ADME, organism-based
Settings: in vivo, read-out: Vdss
readout.label: Vd (L/kg)
Answers are plain numbers, in L/kg.

Look up Vd for this molecule: O=C(CC12CCC(C(=O)O)(CC1)C2)N1CCc2c(n(Cc3ccc(F)cc3)c3ncccc23)C1
1.47

* * *

Test: Half life in SCID mouse at 1 mg/kg, po administered as single dose by LC-MS/MS analysis
Type: ADME, organism-based
Conditions: in vivo
readout.label: half-life (h)
Give bare numbers, in h.

Look up half-life for this compound: O=C(CC12CCC(C(=O)O)(CC1)C2)N1CCc2c(n(Cc3ccc(F)cc3)c3ncccc23)C1
5.4
